Value source: paper PMC7619385

Could you please report measured ΔTm Run 1 for the items listed next?
# study target: UniProt:E9AMP2
# Sequence (E9AMP2 1-422): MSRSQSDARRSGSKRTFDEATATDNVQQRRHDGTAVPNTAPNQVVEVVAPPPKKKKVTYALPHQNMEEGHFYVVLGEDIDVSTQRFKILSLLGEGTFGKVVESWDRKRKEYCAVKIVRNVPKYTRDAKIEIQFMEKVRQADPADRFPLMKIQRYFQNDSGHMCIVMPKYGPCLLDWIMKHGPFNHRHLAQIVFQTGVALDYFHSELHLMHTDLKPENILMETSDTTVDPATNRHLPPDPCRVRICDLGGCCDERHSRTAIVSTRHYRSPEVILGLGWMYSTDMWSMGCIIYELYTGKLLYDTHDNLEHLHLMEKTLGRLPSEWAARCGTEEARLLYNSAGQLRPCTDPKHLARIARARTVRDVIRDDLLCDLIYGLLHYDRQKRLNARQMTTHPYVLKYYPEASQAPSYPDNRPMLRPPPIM
# assay summary: biochemical
# Format: binding
# experimental setup: DSF, 10 µM compound, 2 µM LmxCLK1, Run 1
Record the value in °C, omitting the unit from your answer.

// ΔTm Run 1 lookup, compound = CC(C)n1nc(-c2ccc3oc(N)nc3c2)c2c(N)ncnc21 , result: 0.6

// ΔTm Run 1 lookup, compound = O=C1NC(=O)C(=Cc2ccc(-c3ccc(F)cc3)o2)S1 , result: 0.1

// ΔTm Run 1 lookup, compound = CS(=O)(=O)O.Cn1cc(C2=C(c3cn(CCCSC(=N)N)c4ccccc34)C(=O)NC2=O)c2ccccc21 [Ro 31-8220 Mesylate] , result: 1.1

// ΔTm Run 1 lookup, compound = O=C1NCCc2[nH]c(-c3ccncc3)cc21 , result: 0.7

// ΔTm Run 1 lookup, compound = Clc1ccc(C2(c3ccc(-c4cn[nH]c4)cc3)CCNCC2)cc1 , result: 1.2
